Biological target: c-Raf (Homo sapiens)
Sequence (P04049 whole entry): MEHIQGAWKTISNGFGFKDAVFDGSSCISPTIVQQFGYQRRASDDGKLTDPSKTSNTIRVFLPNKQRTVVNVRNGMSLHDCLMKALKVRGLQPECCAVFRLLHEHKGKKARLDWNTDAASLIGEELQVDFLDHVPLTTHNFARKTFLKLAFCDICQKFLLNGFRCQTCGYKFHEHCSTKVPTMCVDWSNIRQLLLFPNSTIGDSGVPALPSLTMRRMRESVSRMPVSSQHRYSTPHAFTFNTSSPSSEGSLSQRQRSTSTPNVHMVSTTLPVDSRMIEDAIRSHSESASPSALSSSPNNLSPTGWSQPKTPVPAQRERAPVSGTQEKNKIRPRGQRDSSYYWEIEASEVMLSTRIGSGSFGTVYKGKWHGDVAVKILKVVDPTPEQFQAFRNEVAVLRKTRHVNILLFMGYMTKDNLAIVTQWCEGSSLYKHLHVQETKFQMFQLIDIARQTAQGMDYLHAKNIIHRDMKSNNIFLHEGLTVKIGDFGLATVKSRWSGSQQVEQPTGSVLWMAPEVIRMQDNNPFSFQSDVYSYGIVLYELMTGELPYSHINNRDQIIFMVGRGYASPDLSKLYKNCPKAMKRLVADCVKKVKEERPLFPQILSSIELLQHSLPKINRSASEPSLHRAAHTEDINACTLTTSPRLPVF
Test: Luciferase-coupled chemiluminescence kinase assay (ATP consumption), c-Raf
Type: biochemical
Details: read-out: cRaf-1 IC50
# maps each entry to its IC50
reportedProperty: IC50

* COC(=O)Nc1nc2cc(C3(O)c4ccccc4C(=O)N3Cc3cccc(Cl)c3)ccc2[nH]1 (stereo not shown) | < 0.1 µM
* CCc1cccc(N2C(=O)c3ccccc3C2(O)c2ccc3c(c2)NC(=O)CO3)c1 (stereo not shown) | 0.1 to 1 µM
* O=C1COc2ccc(C3(O)c4ccccc4C(=O)N3c3cccc(I)c3)cc2N1 (stereo not shown) | < 0.1 µM
* COC(=O)Nc1nc2cc(C3(O)c4ccccc4C(=O)N3Cc3ccccc3F)ccc2[nH]1 (stereo not shown) | < 0.1 µM
* CC#CCOC(=O)Nc1nc2cc(C3(O)c4ccccc4C(=O)N3Cc3ccccc3)ccc2[nH]1 (stereo not shown) | < 0.1 µM
* COC(=O)Nc1nc2cc(C3(O)c4ccccc4C(=O)N3c3cccc(I)c3)ccc2[nH]1 (stereo not shown) | < 0.1 µM
* O=C(Nc1nc2cc(C3(O)c4ccccc4C(=O)N3Cc3ccccc3)ccc2[nH]1)OC1CCCCC1 (stereo not shown) | 0.1 to 1 µM

----------
Target: B-Raf (Homo sapiens)
Assay: Luciferase-coupled chemiluminescence kinase assay (ATP consumption), B-Raf
Assay type: biochemical
Settings: read-out: bRaf IC50
pIC50: −log10 of the molar value.
pIC50 overview
reportedProperty: pIC50

- COC(=O)Nc1nc2cc(C3(O)c4ccccc4C(=O)N3c3cccc(C(C)=O)c3)ccc2[nH]1 (stereo not shown): > 7.00
- O=C1COc2ccc(C3(O)c4ccccc4C(=O)N3Cc3cccc(OC(F)(F)F)c3)cc2N1 (stereo not shown): ≤ 5.00
- COC(=O)Nc1nc2cc(C3(O)c4ccccc4C(=O)N3C(C)c3cccc(Cl)c3)ccc2[nH]1 (stereo not shown): > 7.00
- O=C(Nc1nc2ccc(C3(O)c4ccccc4C(=O)N3Cc3ccccc3)cc2[nH]1)C1CC1(F)F (stereo not shown): > 7.00

----------
Biological target: B-Raf (Homo sapiens, UniProt P15056)
Sequence (P15056 whole entry): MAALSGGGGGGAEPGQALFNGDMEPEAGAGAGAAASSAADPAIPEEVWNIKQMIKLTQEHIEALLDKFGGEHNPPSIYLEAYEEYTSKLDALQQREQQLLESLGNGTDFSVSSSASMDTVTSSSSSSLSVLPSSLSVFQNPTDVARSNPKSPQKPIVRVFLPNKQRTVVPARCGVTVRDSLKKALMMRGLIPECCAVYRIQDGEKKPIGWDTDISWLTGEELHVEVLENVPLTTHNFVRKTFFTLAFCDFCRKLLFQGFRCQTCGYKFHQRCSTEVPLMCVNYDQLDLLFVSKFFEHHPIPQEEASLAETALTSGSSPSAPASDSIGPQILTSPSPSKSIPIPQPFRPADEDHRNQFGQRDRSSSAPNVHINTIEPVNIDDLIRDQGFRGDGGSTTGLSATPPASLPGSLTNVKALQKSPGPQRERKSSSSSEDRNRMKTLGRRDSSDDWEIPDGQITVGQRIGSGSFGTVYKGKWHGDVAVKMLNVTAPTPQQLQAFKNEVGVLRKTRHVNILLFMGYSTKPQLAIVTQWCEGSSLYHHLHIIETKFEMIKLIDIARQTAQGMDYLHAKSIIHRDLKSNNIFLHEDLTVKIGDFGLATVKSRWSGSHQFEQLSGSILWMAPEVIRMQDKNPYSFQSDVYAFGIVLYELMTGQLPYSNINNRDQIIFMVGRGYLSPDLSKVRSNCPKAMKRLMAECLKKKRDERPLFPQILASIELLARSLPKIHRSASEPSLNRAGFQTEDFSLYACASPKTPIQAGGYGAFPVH
Assay: Luciferase-coupled chemiluminescence kinase assay (ATP consumption), B-Raf
Assay type: biochemical
Conditions: read-out: bRaf IC50
reportedProperty: IC50

- O=C1COc2ccc(C3(O)c4ccccc4C(=O)N3c3cccc([N+](=O)[O-])c3)cc2N1 (stereo not drawn): 1000 to 10000 nM
- COC(=O)Nc1nc2cc(C3(O)c4ccccc4C(=O)N3Cc3ccc(OC)cc3)ccc2[nH]1 (stereo not drawn): ≥ 10000 nM
- CN1CCN(CCCOC(=O)Nc2nc3ccc(C4(O)c5ccccc5C(=O)N4Cc4ccccc4)cc3[nH]2)CC1 (stereo not drawn): < 100 nM
- CCOC(=O)c1cccc(N2C(=O)c3ccccc3C2(O)c2ccc3c(c2)NC(=O)CO3)c1 (stereo not drawn): ≥ 10000 nM
- COC(=O)Nc1nc2cc(C3(O)c4ccccc4C(=O)N3c3ccccc3F)ccc2[nH]1 (stereo not drawn): < 100 nM
- COC(=O)Nc1nc2cc(C3(O)c4ccccc4C(=O)N3c3cccc(F)c3F)ccc2[nH]1 (stereo not drawn): < 100 nM
- COC(=O)Nc1nc2cc(C3(O)c4ccccc4C(=O)N3c3cccc(N(C)C)c3)ccc2[nH]1 (stereo not drawn): < 100 nM
- COC(=O)Nc1nc2cc(C3(O)c4ccccc4C(=O)N3c3ccccc3Cl)ccc2[nH]1 (stereo not drawn): < 100 nM
- COC(=O)Nc1nc2cc(C3(O)c4ccccc4C(=O)N3c3cccc(NC(C)=O)c3)ccc2[nH]1 (stereo not drawn): < 100 nM
- COC(=O)Nc1nc2cc(C3(O)c4ccccc4C(=O)N3Cc3cccc(OC)c3)ccc2[nH]1 (stereo not drawn): 100 to 1000 nM
- O=C1COc2ccc(C3(O)c4ccccc4C(=O)N3c3ccccc3F)cc2N1 (stereo not drawn): 100 to 1000 nM
- COC(=O)Nc1nc2cc(C3(O)c4ccccc4C(=O)N3c3cc(Br)c(F)cc3F)ccc2[nH]1 (stereo not drawn): < 100 nM

Every entry's value here was drawn from patent US7846959B2.
